Molecular target: T1, Macaca fascicularis IL2Rγ extracellular domain expressed with a C-terminal myc-myc-hexahistidine tag (Macaca fascicularis)
T1 construct: also called mfIL-2Rg-MMH; mfIL-2RG-MMH
T1 chain: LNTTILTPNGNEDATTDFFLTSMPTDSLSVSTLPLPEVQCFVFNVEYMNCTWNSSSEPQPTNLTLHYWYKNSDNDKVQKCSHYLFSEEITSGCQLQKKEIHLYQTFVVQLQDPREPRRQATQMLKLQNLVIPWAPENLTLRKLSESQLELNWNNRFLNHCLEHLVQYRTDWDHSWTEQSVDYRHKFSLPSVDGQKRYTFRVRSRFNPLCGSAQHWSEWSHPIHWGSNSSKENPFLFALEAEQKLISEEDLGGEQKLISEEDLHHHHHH
Assay: SPR Biacore 4000, mAb captured by anti-hFc, HBS-ET, 25C
Each entry below lists one item and its recorded 100 nM Ag Bound value.
Report the figure in RU without appending any unit label.

>  <binder>
H4H12863P (antibody, human IgG4 S228P, kappa, V domains shown, anti-IL2Rγ monoclonal antibody expressed with human IgG4 Fc) VH: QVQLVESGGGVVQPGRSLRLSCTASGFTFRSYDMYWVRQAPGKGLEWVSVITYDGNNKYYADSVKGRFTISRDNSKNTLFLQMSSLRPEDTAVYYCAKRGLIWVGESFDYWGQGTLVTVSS VL: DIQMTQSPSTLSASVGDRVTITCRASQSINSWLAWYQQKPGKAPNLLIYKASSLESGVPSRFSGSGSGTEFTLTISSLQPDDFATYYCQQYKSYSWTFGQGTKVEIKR

>  <reportedProperty>
100 nM Ag Bound

>  <unitSymbol>
RU

>  <measurement>
81

$$$$

Proceeding to the next binder to report its 100 nM Ag Bound.
# lookup: 100 nM Ag Bound of H4H12858P (antibody, human IgG4 S228P, kappa, V domains shown, anti-IL2Rγ monoclonal antibody expressed with human IgG4 Fc; also called REGN9433) VH: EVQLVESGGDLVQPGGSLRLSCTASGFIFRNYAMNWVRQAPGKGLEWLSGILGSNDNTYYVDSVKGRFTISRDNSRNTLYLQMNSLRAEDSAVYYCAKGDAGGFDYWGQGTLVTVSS VL: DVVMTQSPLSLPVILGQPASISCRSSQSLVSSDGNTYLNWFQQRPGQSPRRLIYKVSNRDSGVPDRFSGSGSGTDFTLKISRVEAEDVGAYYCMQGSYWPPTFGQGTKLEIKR
58
